- ASSAY_INFO: Solubility of folic acid in phosphate buffer
- Format: physicochemical
- CONDITION_SET: pH 7, aqueous buffer, 25° C., pH of the final solution 7.0
PROPERTY_NAME: solubility (mg/mL)
Numbers only here, please. The scale is mg/mL.

Ask: solubility for Nc1nc2ncc(CNc3ccc(C(=O)N[C@@H](CCC(=O)O)C(=O)O)cc3)nc2c(=O)[nH]1 [FA, Folic acid] ?
Reply: 5.5
